The following compounds are shown together with reported growth values.
# System: BT-549 breast
# METHOD_SUMMARY: NCI-60 one-dose screen, 48 h (100 = growth as untreated, 0 = no growth, -100 = all killed)
# CONDITIONS_USED: 10 µM unless noted
About 83,000 compounds went through this panel and 20% of them were active in at least one assay; those are over-represented in the sample as a whole.
Reply numerically in %, unit not repeated.

// solved cases for growth follow
> print(dat)
                                    compound  target.or.system  reading.unit  experimental.result
 1        O=C1C(Cl)=C(Cl)C(=O)c2c1nc1n2CCCC1     BT-549 breast             %                 95.5
 2  COc1ccc(C2CC(=O)Nc3c2c(C)nn3-c2nc3ccccc3[nH]2)cc1 (configuration not stated)     BT-549 breast             %                  113
 3  COc1ccc2nc3cc(Cl)ccc3c(N3CCN(c4nccc(NCc5ccccc5)n4)CC3)c2c1     BT-549 breast             %                 27.5
 4                       CC#CC#Cc1cccc(=O)o1     BT-549 breast             %                 38.1
 5  O=C1CCc2c(sc3[nH]c(=S)n(Cc4ccccc4)c(=O)c23)C1     BT-549 breast             %                 10.6
 6        Nc1cccc(NC(=O)C(=O)Nc2cccc(N)c2)c1     BT-549 breast             %                  127
 7  CC(C)(C)n1cc(-c2ccnc(NCCCNS(=O)(=O)c3cccc4ccccc34)c2)c(-c2cccc(O)c2)n1     BT-549 breast             %                 39.8
 8  Cc1ccn2c(-c3csc(Nc4cccc(O)c4)n3)c(C)nc2c1     BT-549 breast             %                   25
 9  COc1cnc2c(c1)C(=O)c1c-2n(CCCN2CCN(C)CC2)c(=O)c2cc([N+](=O)[O-])ccc12     BT-549 breast             %                -54.6
10  O=C1c2cc3c(cc2-c2c1c1cc(F)c(F)cc1c(=O)n2C[C@H](O)CO)OCO3     BT-549 breast             %                0.808

Prompt line: Request: growth, test system BT-549 breast, entry `COc1cccc(-c2cn3c(ccc4ccccc43)n2)c1`
Response line: 37.8

Prompt line: Notebook entry, BT-549 breast assay: growth of `CN(C)c1ccc(/C=C(\C#N)c2nc3ccccc3s2)cc1` = ?
Response line: 72.9

Prompt line: Form: Entry = `CSc1nc2sc3c(c2c(=O)n1-c1ccc(C(C)C)cc1)CCC(=O)C3` | System = BT-549 breast | growth = ____
Response line: 3.97

Prompt line: So what growth did `O=c1cc(-c2ccccc2)[nH]c2ccccc12` get with BT-549 breast?
Response line: -12.2

Prompt line: BT-549 breast / growth / `O=C1Nc2ccccc2/C1=C/C(=N/c1nnc(-c2ccc(Cl)cc2)s1)c1ccccc1` : value?
Response line: 31.9

Prompt line: # returns recorded growth (system: BT-549 breast) for `COc1ccc(S(=O)(=O)NCCNc2nccc(-c3c(-c4cccc(N)c4)nc4sccn34)n2)cc1`
Response line: 82.8

Prompt line: Record lookup: for BT-549 breast, what growth belongs to C=C1CCC2C3(C)COC(c4ccccc4Br)OC3CCC2(C)C1C/C=C1/C(=O)OCC1OC(C)=O (configuration not stated) ?
Response line: -74.2

Prompt line: Given the entry `CC(=O)C1=C(O)C=C2Oc3c(C(=O)/C=C/c4c(Cl)cccc4Cl)c(O)c(C)c(O)c3[C@]2(C)C1=O` , what growth was observed with BT-549 breast?
Response line: -28.9

Prompt line: Fill in the recorded growth for this compound, with BT-549 breast as test system: `O=C(/C=C\c1ccc2ccccc2n1)c1cc(Cl)ccc1O`
Response line: 71.5

====

# Test system: MDA-MB-435 melanoma
# METHOD_SUMMARY: NCI-60 one-dose screen, 48 h (100 = growth as untreated, 0 = no growth, -100 = all killed)
# CONDITIONS_USED: 10 µM unless noted
The panel holds about 83,000 compounds, 20% with a hit somewhere; the sample as a whole holds those more often.
QUANTITY_MEASURED: growth (%)
Give the value, in units of %, as a plain number.

> print(dat)
                                   compound  quantity.measured  experimental.result
1  CCCCCCCCCCCCCCCCCCNC(=O)[C@H]1CSC(c2ccc(OC)c(F)c2)N1 (stereo not given in full)             growth                  -83

Prompt line: Request the reported growth associated with `CC(C)(C)n1cc(-c2ccnc(NCCCNS(=O)(=O)c3cccc4ccccc34)c2)c(-c2cccc(O)c2)n1`
Response line: 36.4

Prompt line: I have this compound here, `CC[C@@H](C)OC(=O)c1nn(C(C)=O)c2ccccc12` , and I need its recorded growth.
Response line: 103

Prompt line: # growth lookup, item O=C1OC2C(I)C3CC2C1C3c1ccccc1 (stereo not given)
Response line: 131

Prompt line: Quick one: growth for `O=C1/C(=C\c2cn(C(=O)c3ccc(Cl)cc3)c3ccccc23)c2ccccc2N1c1c(Cl)cccc1Cl` ?
Response line: 116

====

# Test system: NCI-H460 lung
# METHOD_SUMMARY: NCI-60 one-dose screen, 48 h (100 = growth as untreated, 0 = no growth, -100 = all killed)
# CONDITIONS_USED: 10 µM unless noted
About 83,000 compounds went through this panel and 20% of them were active in at least one assay; those are over-represented in the sample as a whole.
QUANTITY_MEASURED: growth (%)
Please reply with the bare figure in % and do not write the unit itself.

Some molecules with known growth results, for comparison:
> print(dat)
                              smiles.string  quantity.measured  experimental.result
1  CC1=C(NCCN2CCCC2)C(=O)c2c(OCc3ccc(C(F)(F)F)cc3)cccc2C1=O             growth                 68.9
2  CN[C@@]12CC3(C=CC(=O)C=C3)O[C@]1(Cc1ccc(OC)cc1)N(C)C(=O)N2             growth                  101
3  COc1cc(OC)c(/C=C/S(=O)(=O)Cc2cnc(OC)c(N)c2)c(OC)c1             growth                 9.05
4  COc1ccc2c(c1)C(=O)/C(=C/c1cccc(OCC(=O)Nc3nc4c(s3)CCCC4)c1)O2             growth                 71.3
5  CN1CCN(c2ccc3nc(-c4ccc5nc(-c6ccc(OCCC(C)(C)C)cc6)[nH]c5c4)[nH]c3c2)CC1             growth                  -80

Prompt line: Query for NCI-H460 lung: what growth does the record show for `CCCCCCCCCC(=O)Oc1ccc(/C(=C(/C)c2ccccc2)c2ccc(OCCN3CCCC3)cc2)cc1` ?
Response line: -7.47

Prompt line: Write down the reported growth of `CCN(CC)CCCCNc1ccc(NCCCCN(CC)CC)c2c1C(=O)c1ccccc1C2=O` , test system: NCI-H460 lung.
Response line: 57.4

Prompt line: Field: growth (NCI-H460 lung). Entry: `O=C(COCc1c(-c2ccccc2)no[n+]1[O-])Nc1ccc(C(=O)/C=C/c2ccc3c(c2)OCO3)cc1`
Response line: 112

Prompt line: Lookup: growth / NCI-H460 lung / `Cc1ccc(-c2nc(/C=N/Nc3cc(C)nc4ccc(Cl)cc34)c(C)o2)cc1`
Response line: -77.2

====

# System: T-47D breast
# METHOD_SUMMARY: NCI-60 one-dose screen, 48 h
# CONDITIONS_USED: 10 µM unless noted
# Experimental: Growth inhibition of the T-47D human tumor cell line is measured as a screen for anti-cancer activity. Cells are grown in 96 well plates and exposed to the test compound for 48 hours. Compounds are tested at a single concentration, which is 10^-5 M for most compounds. The reported endpoint is percent growth (GI% or GIPRCNT), where numbers from 0 - 100% represent growth inhibition, and numbers from -100% - 0 represent cell death. For example, a value of 40 represents 60% growth inhibition. […]
The panel holds about 83,000 compounds, 20% with a hit somewhere; the sample as a whole holds those more often. Active and inactive are the calls of the source. How the source made its calls: active means growth percent below 10; inactive means the rest.
Form entry, call: pick from t = active, f = inactive

> print(dat)
                                   molecule  class
1  COC(=O)[C@H](C(C)C)n1c(=O)c2cc(OC)c(OC)cc2c2cnc3[nH]ccc3c21      f
2  O=C1CC(c2nc3ccccc3s2)CN1C1CCCCC1 (stereo unspecified)      f
3  Nc1c(C(=O)Nc2cccc3c2OCCO3)sc2nc3c(cc12)CN(Cc1ccccc1)CC3      f
4  COc1ccc(N(Cc2cc(OC)c(OC)c(OC)c2)C2OC(=O)c3ccccc32)cc1 (stereo unspecified)      f
5  C[C@]12C[C@@H](c3ccoc3)OC(=O)[C@@H]1CC[C@]1(C)[C@@H]2CC[C@@H](O)[C@]1(C)O      f

Prompt line: Record request — test call for `O=C(/C=C/c1cc2ccccc2[nH]c1=O)/C=C/c1cc2ccccc2[nH]c1=O`
Response line: f

Prompt line: Please indicate how the test categorized `Cn1c(=O)c2c(ncn2CC[N+](C)(C)C)n(C)c1=O` .
Response line: f

Prompt line: Which outcome was entered for the molecule `COc1cc2cc(COc3nccc(-c4ccc(Cl)cc4)n3)c(=O)[nH]c2cc1OC` in this test?
Response line: f

Prompt line: Test call for this molecule, please: CC1CN(Cc2ccco2)C(=S)N(c2ccccc2)C1=O (stereo unspecified)
Response line: f

Prompt line: For this molecule, state the assay outcome: `CCOC(=O)N1CCN(c2nc(Nc3cc(C)[nH]n3)c3ccccc3n2)CC1`
Response line: f

Where do these numbers come from? They come from PubChem BioAssay (NCI).
